Molecular target: Muscarinic acetylcholine receptor M1 (Rattus norvegicus)
Assay: Positive allosteric modulation at rat muscarinic acetylcholine receptor M1 expressed in CHO cells assessed as potentiation of acetylcholine-induced calcium mobilization
pEC50: −log10 of the molar value.
MEASURED PROPERTY: pEC50

| SMILES STRING | pEC50 |
| --- | --- |
| Cn1cc2c(-c3cc(F)c(Cn4cnc5cnccc5c4=O)c(F)c3)cccc2n1 | 5.33 |
| Cn1cc2c(-c3cc(F)c(CN4CCc5ncccc5C4=O)c(F)c3)cccc2n1 | 5.37 |
| Cn1cnc2ccc(-c3cc(F)c(Cn4cnc5cnccc5c4=O)c(F)c3)cc21 | 5.28 |

A: Cn1cc2c(-c3cc(F)c(Cn4cnc5ccccc5c4=O)c(F)c3)cccc2n1
B: Cn1cc2cc(-c3cc(F)c(Cn4c(=O)cnc5ncccc54)c(F)c3)ccc2n1
input: Given the listed items, does A or B have the lesser reported pEC50? Label of pick, please.
output: A
(A: 5.33, B: 5.55)

----------
Target: Muscarinic acetylcholine receptor M1 (Homo sapiens)
Sequence (P11229 whole entry): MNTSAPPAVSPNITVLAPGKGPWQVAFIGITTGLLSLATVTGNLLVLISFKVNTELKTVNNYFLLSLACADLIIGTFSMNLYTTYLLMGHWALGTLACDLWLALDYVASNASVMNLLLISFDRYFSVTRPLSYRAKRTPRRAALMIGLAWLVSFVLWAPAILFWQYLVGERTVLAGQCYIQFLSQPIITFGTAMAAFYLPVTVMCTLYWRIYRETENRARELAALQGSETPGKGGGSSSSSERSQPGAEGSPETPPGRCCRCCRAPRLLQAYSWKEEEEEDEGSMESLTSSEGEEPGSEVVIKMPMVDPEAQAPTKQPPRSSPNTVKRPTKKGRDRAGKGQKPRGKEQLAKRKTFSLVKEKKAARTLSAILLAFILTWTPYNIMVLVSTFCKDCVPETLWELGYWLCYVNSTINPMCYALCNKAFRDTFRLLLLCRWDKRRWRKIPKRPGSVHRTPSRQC
Test: Positive allosteric modulation at human muscarinic acetylcholine receptor M1 expressed in CHO cells assessed as potentiation of acetylcholine-induced calcium mobilization
Assay type: functional, cell-based
Catalogue of EC50 readings, one per entry.

Example cases with answers are listed next.
| SMILES STRING | EC50 |
| --- | --- |
| Cn1cc2c(-c3cc(F)c(Cn4cnc5cnccc5c4=O)c(F)c3)cccc2n1 | 5.3 µM |
| Cn1cc2c(-c3cc(F)c(CN4CCc5ncccc5C4=O)c(F)c3)cccc2n1 | > 10 µM |
| Cn1cc(-c2ccc(CN3Cc4ncccc4C3=O)c(F)c2)cn1 | 1.9 µM |
| Cn1cc2c(-c3cc(F)c(CN4C=CC5=NCCN5C4=O)c(F)c3)cccc2n1 | > 10 µM |
| Cn1cc2c(-c3cc(F)c(Cn4c(=O)cnc5ccccc54)c(F)c3)cccc2n1 | > 10 µM |

Now let's try a different one.
input: Return reported EC50; argument: `Cn1cc2c(-c3cc(F)c(Cn4cnc5ccccc5c4=O)c(F)c3)cccc2n1`
output: > 10 µM

----------
Biological target: Muscarinic acetylcholine receptor M1 (Rattus norvegicus) (UniProt P08482)
Sequence (whole entry): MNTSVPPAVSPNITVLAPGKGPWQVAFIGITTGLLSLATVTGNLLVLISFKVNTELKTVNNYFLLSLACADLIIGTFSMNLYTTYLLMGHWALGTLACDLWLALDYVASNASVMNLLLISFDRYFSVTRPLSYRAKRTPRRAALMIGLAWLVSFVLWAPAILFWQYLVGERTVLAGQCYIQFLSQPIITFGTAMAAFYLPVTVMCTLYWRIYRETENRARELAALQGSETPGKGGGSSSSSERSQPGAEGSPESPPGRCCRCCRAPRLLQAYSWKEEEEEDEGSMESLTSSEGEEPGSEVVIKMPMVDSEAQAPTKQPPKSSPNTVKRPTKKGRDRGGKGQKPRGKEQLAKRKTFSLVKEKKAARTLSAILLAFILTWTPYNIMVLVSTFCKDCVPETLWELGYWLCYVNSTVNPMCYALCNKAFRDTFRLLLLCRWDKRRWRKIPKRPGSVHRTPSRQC
Experiment: Positive allosteric modulation at rat muscarinic acetylcholine receptor M1 expressed in CHO cells assessed as potentiation of acetylcholine-induced calcium mobilization in relative to acetylcholine
Format: functional, cell-based
MEASURED PROPERTY: %max (%)

| SMILES STRING | MEASUREMENT UNITS | %max |
| --- | --- | --- |
| Cn1cc2c(-c3cc(F)c(CN4C=CC5=NCCN5C4=O)c(F)c3)cccc2n1 | % | 50 |
| Cn1cc2c(-c3cc(F)c(Cn4cnc5cnccc5c4=O)c(F)c3)cccc2n1 | % | 73 |
| Cn1cc2c(-c3cc(F)c(Cn4cnc5ccccc5c4=O)c(F)c3)cccc2n1 | % | 45 |
| Cn1cc2cc(-c3cc(F)c(CN4CCn5nccc5C4=O)c(F)c3)ccc2n1 | % | 50 |
| Cn1cc2c(-c3cc(F)c(Cn4c(=O)cnc5ccccc54)c(F)c3)cccc2n1 | % | 67 |

A: Cn1cc2c(-c3cc(F)c(CN4CCc5ncccc5C4=O)c(F)c3)cccc2n1
B: Cn1cc(-c2ccc(CN3Cc4ncccc4C3=O)c(F)c2)cn1
input: Short answer wanted: higher %max, A or B ? Label of pick, please.
output: B
(B: 75%, A: 52%)

----------
Test: Unbound brain to plasma partition coefficient in Sprague-Dawley rat at 0.20 to 0.25 mg/kg, iv administered through cassette dosing after 0.25 hrs
Type: ADME, organism-based
Details: brain and plasma
MEASURED PROPERTY: Kpuu at 0.25 h

| SMILES STRING | Kpuu at 0.25 h |
| --- | --- |
| Cn1cc2cc(-c3cc(F)c(Cn4c(=O)cnc5ncccc54)c(F)c3)ccc2n1 | 1.1 |

P: Cn1cc2cc(-c3cc(F)c(CN4CCn5nccc5C4=O)c(F)c3)ccc2n1
Q: O=c1c2ccncc2ncn1Cc1c(F)cc(-c2ccc3cnccc3c2)cc1F
input: Short answer wanted: higher Kpuu at 0.25 h, P or Q ? Label of pick, please.
output: Q

----------
Biological target: Muscarinic acetylcholine receptor M1 (Homo sapiens)
Test: Positive allosteric modulation at human muscarinic acetylcholine receptor M1 assessed as effect on beta-arrestin recruitment
pEC50: −log10 of the molar value.
MEASURED PROPERTY: pEC50

a: Cn1cc(-c2ccc(CN3Cc4ncccc4C3=O)c(F)c2)cn1
b: Cn1cc2c(-c3cc(F)c(Cn4cnc5cnccc5c4=O)c(F)c3)cccc2n1
input: Given the listed items, does a or b have the lesser reported pEC50? Label of pick, please.
output: a

----------
Assay: Fraction unbound in rat plasma
Type: ADME, cell-free
MEASURED PROPERTY: fraction unbound

Example cases with answers are listed next.
| SMILES STRING | MEASURED PROPERTY | VAL |
| --- | --- | --- |
| Cn1cc2c(-c3cc(F)c(Cn4c(=O)cnc5ccccc54)c(F)c3)cccc2n1 | fraction unbound | 0.01 |
| Cn1cnc2ccc(-c3cc(F)c(Cn4cnc5cnccc5c4=O)c(F)c3)cc21 | fraction unbound | 0.04 |

1: Cn1cc2cc(-c3cc(F)c(Cn4c(=O)cnc5ncccc54)c(F)c3)ccc2n1
2: Cn1cc2cc(-c3cc(F)c(CN4CCn5nccc5C4=O)c(F)c3)ccc2n1
input: Given the listed items, does 1 or 2 have the lesser reported fraction unbound? Label of pick, please.
output: 1
(1: 0.04, 2: 0.06)

----------
Biological target: Muscarinic acetylcholine receptor M1 (Rattus norvegicus, UniProt P08482)
Experiment: Positive allosteric modulation at rat muscarinic acetylcholine receptor M1 expressed in CHO cells assessed as potentiation of acetylcholine-induced calcium mobilization
Type: functional, cell-based
MEASURED PROPERTY: EC50 (µM)

Example cases with answers are listed next.
| SMILES STRING | EC50 / µM |
| --- | --- |
| Cn1cc2c(-c3cc(F)c(CN4C=CC5=NCCN5C4=O)c(F)c3)cccc2n1 | 1.7 |
| Cn1cc2c(-c3cc(F)c(Cn4c(=O)cnc5ccccc54)c(F)c3)cccc2n1 | 4.9 |

I: Cn1cc(-c2ccc(CN3Cc4ncccc4C3=O)c(F)c2)cn1
II: O=c1c2ccncc2ncn1Cc1c(F)cc(-c2ccc3cnccc3c2)cc1F
III: Cn1cc2cc(-c3cc(F)c(CN4CCn5nccc5C4=O)c(F)c3)ccc2n1
input: Put the items in sequence by EC50, from largest down. Use the labels to give the requested order.
output: II, I, III

----------
Test: Fraction unbound in human plasma
Type: ADME, cell-free
MEASURED PROPERTY: fraction unbound

| SMILES STRING | fraction unbound |
| --- | --- |
| Cn1cc2cc(-c3cc(F)c(CN4CCn5nccc5C4=O)c(F)c3)ccc2n1 | 0.05 |
| Cn1cc2c(-c3cc(F)c(CN4CCc5ncccc5C4=O)c(F)c3)cccc2n1 | 0.01 |
| O=c1c2ccncc2ncn1Cc1c(F)cc(-c2ccc3cnccc3c2)cc1F | 0.03 |
| Cn1cc2c(-c3cc(F)c(Cn4cnc5cnccc5c4=O)c(F)c3)cccc2n1 | 0.01 |
| Cn1cc2cc(-c3cc(F)c(Cn4c(=O)cnc5ncccc54)c(F)c3)ccc2n1 | 0.04 |

A: Cn1cc2c(-c3cc(F)c(CN4C=CC5=NCCN5C4=O)c(F)c3)cccc2n1
B: Cn1cc2c(-c3cc(F)c(Cn4c(=O)cnc5ccccc54)c(F)c3)cccc2n1
C: Cn1cnc2ccc(-c3cc(F)c(Cn4cnc5cnccc5c4=O)c(F)c3)cc21
input: Put the items in sequence by fraction unbound, from largest down. Use the labels to give the requested order.
output: C, A, B

----------
Test: Fraction unbound in rat plasma
Format: ADME, cell-free
MEASURED PROPERTY: fraction unbound

| SMILES STRING | fraction unbound |
| --- | --- |
| Cn1cc2c(-c3cc(F)c(CN4CCc5ncccc5C4=O)c(F)c3)cccc2n1 | 0.01 |
| Cn1cc2c(-c3cc(F)c(Cn4cnc5ccccc5c4=O)c(F)c3)cccc2n1 | 0.01 |

1: Cn1cc2c(-c3cc(F)c(CN4C=CC5=NCCN5C4=O)c(F)c3)cccc2n1
2: Cn1cc2c(-c3cc(F)c(Cn4cnc5cnccc5c4=O)c(F)c3)cccc2n1
input: Short answer wanted: higher fraction unbound, 1 or 2 ? Label of pick, please.
output: 1
(1: 0.08, 2: 0.01)
